# maps each entry to its MIC
Test system: Staphylococcus aureus ATCC 29213
Assay: MIC by broth microdilution (CAMHB, NCCLS)
Assay type: cell-based
Details: ATCC29213; code A: Staphylococcus aureus ATCC 29213; read-out: MIC
Note: unit µg/mL is implicit; provide only the numeric part.

Enquiry: Value lookup for MIC; key = CC[C@H]1OC(=O)[C@H](C)[C@@H](O[C@H]2C[C@@](C)(OC)[C@@H](O)[C@H](C)O2)[C@H](C)[C@@H](O[C@@H]2O[C@H](C)C[C@H](N(C)C)[C@H]2O)[C@](C)(O)C[C@@H](C)C(=O)[C@H](C)[C@@H](O)[C@]1(C)O [Erythromycin, reference compound]
Return: 0.5

Enquiry: For the molecule shown here, CC[C@H]1OC(=O)[C@H](C)[C@@H](O[C@H]2C[C@@](C)(OC)[C@@H](O)[C@H](C)O2)[C@H](C)[C@@H](O[C@@H]2O[C@H](C)C[C@H](N(C)C)[C@H]2O)[C@](C)(OC)C[C@@H](C)C(=O)[C@H](C)[C@H]2[C@H](SCCn3cnc4c(N)ncnc43)C(=O)O[C@@]21C [Example 1] , give the reported MIC.
Return: 1

Enquiry: Need MIC of CC[C@H]1OC(=O)[C@H](C)C(=O)[C@H](C)[C@@H](O[C@@H]2O[C@H](C)C[C@H](N(C)C)[C@H]2O)[C@](C)(OC)C[C@@H](C)C(=O)[C@H](C)[C@H]2N(CCCCn3cnc(-c4cccnc4)c3)C(=O)O[C@]12C [Telithromycin, reference compound] , thanks.
Return: 0.25

Enquiry: Report MIC for CC[C@H]1OC(=O)[C@H](C)[C@@H](O[C@H]2C[C@@](C)(OC)[C@@H](O)[C@H](C)O2)[C@H](C)[C@@H](O[C@@H]2O[C@H](C)C[C@H](N(C)C)[C@H]2O)[C@](C)(OC)C[C@@H](C)C(=O)[C@H](C)[C@H]2[C@H](SCCn3cnc4cccnc43)C(=O)O[C@@]21C [Example 4] please.
Return: 1

====

Test system: Streptococcus pneumoniae 1/1
Experiment: MIC by broth microdilution (CAMHB + 5% horse serum, NCCLS)
Assay type: cell-based
Settings: code D: Streptococcus pneumoniae 1/1
From the text: MIC values for non-anaerobes were obtained by broth microdilution using CAMHB (BBL) according to NCCLS guidelines (National Committee for Clinical Laboratory Standards. Methods for dilution antimicrobial susceptibility tests for bacteria that grow aerobically, 5th ed. Approved standard M7-A6. NCCLS, Wayne, Pa., 2003). […] Activities expressed as the minimal inhibitory concentrations (MICs) (μg/ml) are given in the following Table 3, and the microorganisms used for testing are listed in Table 2 below.
measure: MIC (µg/mL)
Kindly provide the numeric value in µg/mL only, without the unit symbol.

Enquiry: Entry CC[C@H]1OC(=O)[C@H](C)[C@@H](O[C@H]2C[C@@](C)(OC)[C@@H](O)[C@H](C)O2)[C@H](C)[C@@H](O[C@@H]2O[C@H](C)C[C@H](N(C)C)[C@H]2O)[C@](C)(OC)C[C@@H](C)C(=O)[C@H](C)[C@H]2[C@H](SCCCc3ccc4ncccc4c3)C(=O)O[C@@]21C [Example 3] : reported MIC = ?
Return: 0.25

====

System: Streptococcus pneumoniae 1/1
Experiment: MIC by broth microdilution (CAMHB + 5% horse serum, NCCLS)
Assay type: cell-based
Conditions: code D: Streptococcus pneumoniae 1/1

# substance smiles, MIC
measured = [
    ("CC[C@H]1OC(=O)[C@H](C)[C@@H](O[C@H]2C[C@@](C)(OC)[C@@H](O)[C@H](C)O2)[C@H](C)[C@@H](O[C@@H]2O[C@H](C)C[C@H](N(C)C)[C@H]2O)[C@](C)(OC)C[C@@H](C)C(=O)[C@H](C)[C@H]2[C@H](SCCn3cnc4cncnc43)C(=O)O[C@@]21C", "<=0.06 μg/ml"),
    ("CC[C@H]1OC(=O)[C@H](C)[C@@H](O[C@H]2C[C@@](C)(OC)[C@@H](O)[C@H](C)O2)[C@H](C)[C@@H](O[C@@H]2O[C@H](C)C[C@H](N(C)C)[C@H]2O)[C@](C)(OC)C[C@@H](C)C(=O)[C@H](C)[C@H]2[C@H](SCCCN3C(=O)c4ccccc4C3=O)C(=O)O[C@@]21C", "<=0.06 μg/ml"),
    ("CC[C@H]1OC(=O)[C@H](C)[C@@H](O[C@H]2C[C@@](C)(OC)[C@@H](O)[C@H](C)O2)[C@H](C)[C@@H](O[C@@H]2O[C@H](C)C[C@H](N(C)C)[C@H]2O)[C@](C)(OC)C[C@@H](C)C(=O)[C@H](C)[C@H]2[C@H](SCCNc3ncnc4[nH]cnc34)C(=O)O[C@@]21C", "<=0.06 μg/ml"),
]
